Where do these numbers come from? They come from patent US20180016324A1.

# assay-system: T1, ZIKV (prM80E) with a C-terminal myc-myc-hexahistidine tag (Zika virus, UniProt A0A024B7W1 104-694)
# T1 construct: also called ZIKV (prM80E)-mmH; ZIKV-mmH
# test-summary: SPR, mAb captured, 37C
pKd: −log10 of the molar value.

# binder, pKd
records = [
    ("H4H25619P (antibody, V domains shown) VH: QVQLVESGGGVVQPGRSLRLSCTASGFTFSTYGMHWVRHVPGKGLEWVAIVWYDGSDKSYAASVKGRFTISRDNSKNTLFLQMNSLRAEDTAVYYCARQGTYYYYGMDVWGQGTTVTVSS VL: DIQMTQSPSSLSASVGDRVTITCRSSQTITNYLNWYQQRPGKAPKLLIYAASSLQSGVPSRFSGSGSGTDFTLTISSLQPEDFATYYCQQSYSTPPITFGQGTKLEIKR", 8.25),
    ("H4H25566P (antibody, V domains shown) VH: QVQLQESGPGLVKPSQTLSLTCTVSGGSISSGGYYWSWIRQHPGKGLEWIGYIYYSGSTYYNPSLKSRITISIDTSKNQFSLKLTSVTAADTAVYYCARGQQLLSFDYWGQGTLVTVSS VL: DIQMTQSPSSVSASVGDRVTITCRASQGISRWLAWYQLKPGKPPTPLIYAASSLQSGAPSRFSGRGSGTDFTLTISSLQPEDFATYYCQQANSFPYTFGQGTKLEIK", 7.28),
    ("H4H25602P (antibody, V domains shown) VH: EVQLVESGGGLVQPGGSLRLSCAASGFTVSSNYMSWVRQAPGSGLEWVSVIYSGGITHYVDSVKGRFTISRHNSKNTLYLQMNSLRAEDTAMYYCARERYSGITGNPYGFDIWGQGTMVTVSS VL: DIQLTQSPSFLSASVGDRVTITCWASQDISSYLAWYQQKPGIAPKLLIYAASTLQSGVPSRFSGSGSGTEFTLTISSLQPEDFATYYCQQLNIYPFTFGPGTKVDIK", 9.13),
]
